Provide the reported GI50 of each item.
Test system: DU-145
Experiment: NCI tumour cell line growth inhibition, 48 h
The source made the active and inactive calls. Cut-off read from the data, not from the text of the source: active = GI50 up to about 1.1 µM and inactive = higher.

Ask | Query: GI50; subject: C/C(=N\Nc1nc2ccccc2s1)c1cc2ccccc2cn1
Reply | 3.85 µM (inactive)

Ask | Query: GI50; subject: COc1ccc2c(=O)oc3c(OC)cc(CCN(C)C)c4c(=O)oc1c2c34
Reply | 8.51 µM (inactive)

Ask | Query: GI50; subject: COc1ccc(CCc2ccc3c(c2)OCO3)cc1
Reply | 43 µM (inactive)

Ask | Query: GI50; subject: CC(=O)OC1C(O)COC(O[C@H]2CC[C@]34C[C@]35CC[C@]3(C)C([C@@]6(C)CC[C@@H](C(C)(C)O)O6)[C@@H](O)C[C@@]3(C)C5C[C@H](OC3OCC(O)C(O)C3O)[C@H]4C2(C)C)C1OC1OCC(O)C(O)C1O (some centres not stated)
Reply | > 100 µM (inactive)

Ask | Query: GI50; subject: CC1c2cc(c3c(c2O)CN([C@@H](C)C2CCCCC2)CO3)C(C)c2cc(c3c(c2O)CN([C@@H](C)C2CCCCC2)CO3)C(C)c2cc(c3c(c2O)CN([C@@H](C)C2CCCCC2)CO3)C(C)c2cc1c1c(c2O)CN([C@@H](C)C2CCCCC2)CO1 (some centres not stated)
Reply | 1.35 µM (inactive)

Ask | Query: GI50; subject: O=[N+]([O-])c1ccc(N/N=C2/CC3=C2CCCCCCCCCC3)c([N+](=O)[O-])c1
Reply | > 100 µM (inactive)

Ask | Query: GI50; subject: OCCN1c2ccccc2Sc2ccccc21
Reply | > 10 µM (inactive)
